# target desc: pERK1/2 (Thr202/Tyr204), NCI-1H441 (KRAS G12V) (Homo sapiens, UniProt P01116, G12V)
# Construct: pERK1/2 HTRF read-out
# Sequence (P01116 1-188 isoform P01116-2 G12V): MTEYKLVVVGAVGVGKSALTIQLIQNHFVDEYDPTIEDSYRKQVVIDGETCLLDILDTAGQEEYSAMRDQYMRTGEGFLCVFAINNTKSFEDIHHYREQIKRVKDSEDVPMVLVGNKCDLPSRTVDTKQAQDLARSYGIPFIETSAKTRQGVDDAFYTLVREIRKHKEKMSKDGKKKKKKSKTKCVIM
# assay protocol: Assay of intracellular pERK1/2 (Thr202/Tyr204) phosphorylation in NCI-H441 cells (KRAS G12V)
# Format: cell-based
# test parameters: pERK1/2, 2 days, read-out: NCI-H441 (KRAS G12V) IC50
pIC50: −log10 of the molar value.
attribute measured: pIC50

(P) CC(c1cccnc1N)N1c2nc(OC[C@@]34CCCN3C[C@H](F)C4)nc3c(F)c(-c4cc(F)cc5c4C(F)(F)CC5)nc(c23)OC[C@@H]1C (stereo partly drawn) [Compound 371]
(Q) [2H]C1([2H])CC[C@@]2(COc3nc4c5c(nc(-c6cc(N)c(F)c(C)c6C(F)(F)F)c(F)c5n3)OCCN4C(C)c3cccnc3N)C[C@@]([2H])(F)CN12 (stereo partly drawn) [Compound 148]
Of the two listed items, P and Q , which carries the larger pIC50 figure? Label of pick, please.
Q
(Q: 9.52, P: 7.96)
